# System: 876862-298-R-J1-PDC complex spheroids, viability % test/control
# EXPERIMENTAL DETAILS: Anticancer human tumor 876862-298-R-J1-PDC patient-derived endometrial carcinoma cell line growth inhibition [CLK]; active means viability on the fitted dose curve at most 10% of control; inactive means the rest
# MEASUREMENT SETUP: second compound 10 µM; first compound 0.000949 µM
The reply should name one outcome from TRUE = active, FALSE = inactive

q: What outcome does the record of this test show for C=CC(=O)Nc1cc(Nc2nccc(-c3cn(C)c4ccccc34)n2)c(OC)cc1N(C)CCN(C)C + CN1CCN(c2cc(C(=O)Nc3cc4cc(-c5cnn(C)c5)ccc4cn3)ccn2)CC1 ?
a: TRUE

q: What outcome does the record of this test show for CC(C)CC(NC(=O)C(Cc1ccccc1)NC(=O)c1cnccn1)B(O)O (centres undefined) + CN1CCN(c2cc(C(=O)Nc3cc4cc(-c5cnn(C)c5)ccc4cn3)ccn2)CC1 ?
a: TRUE

q: What outcome does the record of this test show for C=CC(=O)Nc1cc(Nc2nccc(-c3cn(C)c4ccccc34)n2)c(OC)cc1N(C)CCN(C)C + CNC(=O)c1ccc(Nc2nc(OC3CCCC3)c3c(-c4ccc5nc(C)oc5c4)c[nH]c3n2)c(OC)c1 ?
a: FALSE

q: What outcome does the record of this test show for CC(C)CC(NC(=O)C(Cc1ccccc1)NC(=O)c1cnccn1)B(O)O (centres undefined) + CNC(=O)c1ccc(Nc2nc(OC3CCCC3)c3c(-c4ccc5nc(C)oc5c4)c[nH]c3n2)c(OC)c1 ?
a: FALSE

* * *

# System: 876862-298-R-J1-PDC complex spheroids, viability % test/control
# EXPERIMENTAL DETAILS: Anticancer human tumor 876862-298-R-J1-PDC cell line growth inhibition [CLK];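 further: spheroids exposed to drugs for 7 days before readout; 100% = DMSO vehicle control wells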
# MEASUREMENT SETUP: second compound 0.0316 µM; first compound 0.316 µM; stronger effect = lower value
VALUE TYPE: viability, T/C (%)
Reply numerically in %, unit not repeated.

q: Param item = C=C(F)C(=O)N1CCN(c2nc(OCC3CCCN3C)nc3c2CCN(c2cccc4cccc(Cl)c24)C3)CC1CC#N (stereo not given) + CNC(=O)c1ccc(Nc2nc(OC3CCCC3)c3c(-c4ccc5nc(C)oc5c4)c[nH]c3n2)c(OC)c1 ; retrieve measured viability, T/C.
a: 74.5

q: Param item = CC1(C)CCC(CN2CCN(c3ccc(C(=O)NS(=O)(=O)c4ccc(NCC5CCOCC5)c([N+](=O)[O-])c4)c(Oc4cnc5[nH]ccc5c4)c3)CC2)=C(c2ccc(Cl)cc2)C1 + CN1CCN(c2cc(C(=O)Nc3cc4cc(-c5cnn(C)c5)ccc4cn3)ccn2)CC1 ; retrieve measured viability, T/C.
a: 90.4

q: Param item = O=c1[nH]cc(F)c(=O)[nH]1 + CNC(=O)c1ccc(Nc2nc(OC3CCCC3)c3c(-c4ccc5nc(C)oc5c4)c[nH]c3n2)c(OC)c1 ; retrieve measured viability, T/C.
a: 81.4

q: Param item = CC1COCCN1c1cc(C2(S(C)(=N)=O)CC2)nc(-c2ccnc3[nH]ccc23)n1 (stereo not given) + CN1CCN(c2cc(C(=O)Nc3cc4cc(-c5cnn(C)c5)ccc4cn3)ccn2)CC1 ; retrieve measured viability, T/C.
a: 76.5

q: Param item = O=C(c1cc(Cc2n[nH]c(=O)c3ccccc23)ccc1F)N1CCN(C(=O)C2CC2)CC1 + CN1CCN(c2cc(C(=O)Nc3cc4cc(-c5cnn(C)c5)ccc4cn3)ccn2)CC1 ; retrieve measured viability, T/C.
a: 85.7

q: Param item = CC(=O)O[C@H]1C(=O)[C@@]2(C)[C@H]([C@H](OC(=O)c3ccccc3)[C@]3(O)C[C@H](OC(=O)[C@H](O)[C@@H](NC(=O)c4ccccc4)c4ccccc4)C(C)=C1C3(C)C)[C@]1(OC(C)=O)CO[C@@H]1C[C@@H]2O + CN1CCN(c2cc(C(=O)Nc3cc4cc(-c5cnn(C)c5)ccc4cn3)ccn2)CC1 ; retrieve measured viability, T/C.
a: 30.5

q: Param item = COc1c(OCCCN2CCOCC2)ccc2c3n(c(=NC(=O)c4cnc(N)nc4)nc12)CCN3 + CNC(=O)c1ccc(Nc2nc(OC3CCCC3)c3c(-c4ccc5nc(C)oc5c4)c[nH]c3n2)c(OC)c1 ; retrieve measured viability, T/C.
a: 15.8

q: Param item = COc1cccc2c1C(=O)c1c(O)c3c(c(O)c1C2=O)CC(O)(C(=O)CO)CC3OC1CC(N)C(O)C(C)O1 (stereo not given) + CN1CCN(c2cc(C(=O)Nc3cc4cc(-c5cnn(C)c5)ccc4cn3)ccn2)CC1 ; retrieve measured viability, T/C.
a: 7.2

q: Param item = Nc1ccccc1NC(=O)c1ccc(CNC(=O)OCc2cccnc2)cc1 + CN1CCN(c2cc(C(=O)Nc3cc4cc(-c5cnn(C)c5)ccc4cn3)ccn2)CC1 ; retrieve measured viability, T/C.
a: 81.9

q: Param item = CC(Nc1ccc2c(c1)OCCn1cc(N3C(=O)OCC3C(F)F)nc1-2)C(N)=O (stereo not given) + CN1CCN(c2cc(C(=O)Nc3cc4cc(-c5cnn(C)c5)ccc4cn3)ccn2)CC1 ; retrieve measured viability, T/C.
a: 56.9

q: Param item = COc1ccc([C@@H](O)c2cc(-c3ncnc4cc(N5CCOCC5)ccc34)c(F)cc2Cl)nn1 + CN1CCN(c2cc(C(=O)Nc3cc4cc(-c5cnn(C)c5)ccc4cn3)ccn2)CC1 ; retrieve measured viability, T/C.
a: 86

q: Param item = COC1C=CCC(C)C(C)S(=O)(=O)NC(=O)c2ccc3c(c2)N(CC2CCC21)CC1(CCCc2cc(Cl)ccc21)CO3 (stereo not given) + CNC(=O)c1ccc(Nc2nc(OC3CCCC3)c3c(-c4ccc5nc(C)oc5c4)c[nH]c3n2)c(OC)c1 ; retrieve measured viability, T/C.
a: 66.1

q: Param item = CC(Nc1ccc2c(c1)OCCn1cc(N3C(=O)OCC3C(F)F)nc1-2)C(N)=O (stereo not given) + CNC(=O)c1ccc(Nc2nc(OC3CCCC3)c3c(-c4ccc5nc(C)oc5c4)c[nH]c3n2)c(OC)c1 ; retrieve measured viability, T/C.
a: 46.6

q: Param item = COc1cccc2c1C(=O)c1c(O)c3c(c(O)c1C2=O)CC(O)(C(=O)CO)CC3OC1CC(N)C(O)C(C)O1 (stereo not given) + CNC(=O)c1ccc(Nc2nc(OC3CCCC3)c3c(-c4ccc5nc(C)oc5c4)c[nH]c3n2)c(OC)c1 ; retrieve measured viability, T/C.
a: 6.58

q: Param item = CCc1c2c(nc3ccc(O)cc13)-c1cc3c(c(=O)n1C2)COC(=O)[C@]3(O)CC + CN1CCN(c2cc(C(=O)Nc3cc4cc(-c5cnn(C)c5)ccc4cn3)ccn2)CC1 ; retrieve measured viability, T/C.
a: 3.57

q: Param item = C#Cc1c(F)ccc2cc(O)cc(-c3ncc4c(N5CC6CCC(C5)N6)nc(OCC56CCCN5CC(F)C6)nc4c3F)c12 (stereo not given) + CN1CCN(c2cc(C(=O)Nc3cc4cc(-c5cnn(C)c5)ccc4cn3)ccn2)CC1 ; retrieve measured viability, T/C.
a: 87.8

q: Param item = CCc1c2c(nc3ccc(O)cc13)-c1cc3c(c(=O)n1C2)COC(=O)[C@]3(O)CC + CNC(=O)c1ccc(Nc2nc(OC3CCCC3)c3c(-c4ccc5nc(C)oc5c4)c[nH]c3n2)c(OC)c1 ; retrieve measured viability, T/C.
a: 5.07

q: Param item = Nc1ccn(C2OC(CO)C(O)C2(F)F)c(=O)n1 (stereo not given) + CNC(=O)c1ccc(Nc2nc(OC3CCCC3)c3c(-c4ccc5nc(C)oc5c4)c[nH]c3n2)c(OC)c1 ; retrieve measured viability, T/C.
a: 9.02

q: Param item = C#Cc1c(F)ccc2cc(O)cc(-c3ncc4c(N5CC6CCC(C5)N6)nc(OCC56CCCN5CC(F)C6)nc4c3F)c12 (stereo not given) + CNC(=O)c1ccc(Nc2nc(OC3CCCC3)c3c(-c4ccc5nc(C)oc5c4)c[nH]c3n2)c(OC)c1 ; retrieve measured viability, T/C.
a: 71.9

q: Param item = O=C(c1cc(Cc2n[nH]c(=O)c3ccccc23)ccc1F)N1CCN(C(=O)C2CC2)CC1 + CNC(=O)c1ccc(Nc2nc(OC3CCCC3)c3c(-c4ccc5nc(C)oc5c4)c[nH]c3n2)c(OC)c1 ; retrieve measured viability, T/C.
a: 84.5
